Assay read-out IC50 on Procathepsin L (Rattus norvegicus, UniProt P07154); records merged from the literature.

>  <compound.structure.string>
CC(C)C[C@H](NC(=O)OCc1ccccc1)C(=O)NC1=CNC2(CCCC2)NC1=O

>  <result.qualifier>
=

>  <IC50 / nM>
1790

$$$$
>  <compound.structure.string>
O=C(N[C@@H](Cc1ccccc1)C(=O)N[C@@H]1C(=O)N2CCS[C@@H]12)OCc1ccccc1

>  <result.qualifier>
=

>  <IC50 / nM>
6680

$$$$
>  <compound.structure.string>
O=C(CCc1ccccc1)N[C@@H](CC1CCCCC1)C(=O)N[C@@H]1C(=O)N2CCS[C@@H]12

>  <result.qualifier>
>

>  <IC50 / nM>
50000

$$$$
>  <compound.structure.string>
CC(=O)O[C@@H]1NC(=O)[C@H]1NC(=O)[C@H](Cc1ccc2ccccc2c1)NC(=O)OCc1ccccc1

>  <result.qualifier>
=

>  <IC50 / nM>
13.5

$$$$
